Test system: 699152-130-R-J1-PDC complex spheroid viability
Test protocol: Anticancer human tumor 699152-130-R-J1-PDC patient-derived pancreatic carcinoma cell line growth inhibition [POLQ]
Experimental parameters: second compound 3.16 µM; first compound 0.1 µM; stronger effect = lower value
Catalogue of compounds with associated viability, T/C
Respond with the bare value in %.

# input Which viability, T/C is listed for Cn1ncnc1[C@H]1c2n[nH]c(=O)c3cc(F)cc(c23)N[C@@H]1c1ccc(F)cc1 + COC1C(OC(N)=O)C(O)C(Oc2ccc3c(O)c(NC(=O)c4ccc(O)c(CC=C(C)C)c4)c(=O)oc3c2C)OC1(C)C ?
# output 80.8

---

Catalogue of compounds with associated viability, T/C
System: 699152-130-R-J1-PDC complex spheroid viability
Test protocol: Anticancer human tumor 699152-130-R-J1-PDC cell line growth inhibition [POLQ];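 also: spheroids exposed to agents for 7 days before viability reading; percent of DMSO vehicle control viability so 100% = vehicle and 0% = no viable signal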
Experimental parameters: second compound 3.16 µM; first compound 0.1 µM; stronger effect = lower value
Respond with the bare value in %.

Below, each entry is followed by its recorded viability, T/C result.
COc1cc2cc(C(=O)CCC(=O)O)sc2cc1OC + COC1C(OC(N)=O)C(O)C(Oc2ccc3c(O)c(NC(=O)c4ccc(O)c(CC=C(C)C)c4)c(=O)oc3c2C)OC1(C)C ... 98.6
CC1COCCN1c1cc(C2(S(C)(=N)=O)CC2)nc(-c2ccnc3[nH]ccc23)n1 (stereo not drawn) + Cc1cccc(N(C)C(=O)C2C(O)CCN2c2nc(C)cc(C(F)(F)F)c2C#N)c1 ... 97.9

Now for another entry.
# input Which viability, T/C is listed for COc1ccc([C@@H](O)c2cc(-c3ncnc4cc(N5CCOCC5)ccc34)c(F)cc2Cl)nn1 + Nc1ccc(C#CCN(C(=O)Cc2ncc(C(F)(F)F)cc2C(F)(F)F)c2ccc(F)cc2)nn1 ?
# output 92.6
